Test system: WPMY1-ACTB-RAB5A
Experiment: lowest phenotypically active concentration; higher = less potent
Settings: treatment time: 24 h
Counter-ions that a name gives are not always drawn.
This section presents compounds with their documented lowest phenotypically active concentration values.
READOUT KIND: lowest phenotypically active concentration

C[C@@H](CN1CCC(n2c(=O)[nH]c3cc(Cl)ccc32)CC1)NC(=O)c1ccc2ccccc2c1 | 9 µM
CC(=O)Nc1ccc(C(=O)Nc2ccccc2N)cc1 | 3 µM
CC(=O)O[C@H]1C(=O)[C@@]2(C)[C@H]([C@H](OC(=O)c3ccccc3)[C@]3(O)C[C@H](OC(=O)[C@H](O)[C@@H](NC(=O)c4ccccc4)c4ccccc4)C(C)=C1C3(C)C)[C@]1(OC(C)=O)CO[C@@H]1C[C@@H]2O | ≤ 0.3 µM
Cc1nc(Nc2ncc(C(=O)Nc3c(C)cccc3Cl)s2)cc(N2CCN(CCO)CC2)n1 | ≤ 0.3 µM
O=C(CCCCCCC(=O)Nc1ccc([C@H]2O[C@@H](CSc3nc(-c4ccccc4)c(-c4ccccc4)o3)C[C@@H](c3ccc(CO)cc3)O2)cc1)NO | 9 µM
NCCNS(=O)(=O)c1cccc2cnccc12 [H-9 dihydrochloride] | 9 µM
CC(=O)NCC(=O)N1[C@@H]2CC[C@H]1c1ccc(Nc3ncc(C(F)(F)F)c(NC4CCC4)n3)cc12 | ≤ 0.3 µM
CCOC(=O)CCNc1cc(N2CCc3ccccc3CC2)nc(-c2ccccn2)n1 | 9 µM
CNCCCN1c2ccccc2CCc2ccccc21 | 9 µM
O=C(OC12CC3CC(CC(C3)C1)C2)c1ccc(NCc2cc(O)ccc2O)cc1 | 1 µM
C=CC(=O)Nc1cccc(CN2C(=O)N(c3c(Cl)c(OC)cc(OC)c3Cl)Cc3cnc(NCCCCN(CC)CC)nc32)c1 [FIIN 1 hydrochloride] | ≤ 0.3 µM
Cc1ncc(-c2ccnc(Nc3ccc(S(C)(=O)=O)cc3)n2)n1C(C)C | ≤ 0.3 µM
COc1ccccc1C(=O)Nc1cc2c(cc1N1CCCC1)n(C)c(=O)n2C | 9 µM
O=C(/C=C/c1ccc2ccccc2n1)c1ccncc1 | 9 µM
O=C(NCCN1CCC(n2c(=O)[nH]c3ccccc32)CC1)c1cc2cc(F)ccc2[nH]1 | 9 µM
CCc1nc(-c2cccc(C)c2)c(-c2ccnc(NC(=O)c3ccccc3)c2)s1 | 9 µM
Cc1cc2c(F)c(Oc3ncnn4cc(OC[C@@H](C)OC(=O)[C@H](C)N)c(C)c34)ccc2[nH]1 [brivanib-alaninate] | 3 µM
O=C(NOC[C@H](O)CO)c1ccc(F)c(F)c1Nc1ccc(I)cc1F | 1 µM
CN(C)CCCN1c2ccccc2Sc2ccc(Cl)cc21 | 9 µM
CC(C)CNc1nc(-c2cccc3ncccc23)cn2c(-c3ccc(C(=O)NC4CC4)cc3)cnc12 | 1 µM
COc1ccc(CC2c3cc(OC)c(OC)cc3CC[N+]2(C)CCC(=O)OCCCCCOC(=O)CC[N+]2(C)CCc3cc(OC)c(OC)cc3C2Cc2ccc(OC)c(OC)c2)cc1OC (stereo not given) [Atracurium besilate] | 3 µM
O=C1c2ccccc2-c2nc3nonc3nc21 | 3 µM
CCC1(O)CC2CN(CCc3c([nH]c4ccccc34)C(C(=O)OC)(c3cc4c(cc3OC)N(C)C3C(O)(C(=O)OC)C(OC(C)=O)C5(CC)C=CCN6CCC43C65)C2)C1 (stereo not given) [Vinblastine sulfate] | ≤ 0.3 µM
Cc1cc2c(F)c(Oc3ncnn4cc(OC[C@@H](C)O)c(C)c34)ccc2[nH]1 | 3 µM
Nc1nc(S)c2[nH]cnc2n1 | 1 µM
O=C1c2c(O)cccc2Cc2cccc(O)c21 | 9 µM
COc1cc2c(Nc3ccc(Br)cc3F)ncnc2cc1OCC1CCN(C)CC1 | 3 µM
Cc1noc(C)c1-c1cc(O)cc(C(O)c2ccccc2)c1 (stereo not given) | 3 µM
COCC(=O)O[C@]1(CCN(C)CCCc2nc3ccccc3[nH]2)CCc2cc(F)ccc2[C@@H]1C(C)C | 9 µM
N#CC[C@@H](C1CCCC1)n1cc(-c2ncnc3[nH]ccc23)cn1 [ruxolitinib-(S)] | 9 µM
CC(C)C[C@H](NC(=O)OCC1c2ccccc2-c2ccccc21)C(=O)O | 9 µM
COc1cc2c(NC3CCN(C(C)C)CC3)nc(C3CCCCC3)nc2cc1OCCCN1CCCC1 | 1 µM
O=C(NCCCNc1nc(Nc2cccc(NC(=O)N3CCCC3)c2)ncc1I)c1cccs1 | 3 µM
N#Cc1c(C2CCNCC2)cc(-c2c(O)cccc2OCC2CC2)nc1N | 3 µM
CC(C)CCN1c2nc(Nc3cc(F)c(O)c(F)c3)ncc2N(C)C(=O)C1C (stereo not given) | 3 µM

====

Tested on: HepG2-TUBA1B-RELA
Assay: phenotypically active (imaging signature differs from DMSO and reproducible) at any of 0.3-9 uM (binary (1 = active, 0 = inactive)); higher = active
Settings: treatment time: 24 h
Classes used: YES for active, NO for inactive

COc1cc(OC)c2c(=O)[nH]c(-c3cc(C)c(OCCO)c(C)c3)nc2c1 | NO
CC(=O)O[C@H]1C(=O)[C@@]2(C)[C@H]([C@H](OC(=O)c3ccccc3)[C@]3(O)C[C@H](OC(=O)[C@H](O)[C@@H](NC(=O)c4ccccc4)c4ccccc4)C(C)=C1C3(C)C)[C@]1(OC(C)=O)CO[C@@H]1C[C@@H]2O | YES
Cc1cc(C)nc(SCC(=O)Nc2ncc(Cc3cccc4ccccc34)s2)n1 | NO
CC(=O)c1c(C)c2cnc(Nc3ccc(N4CCNCC4)cn3)nc2n(C2CCCC2)c1=O | YES
O=C1CCc2ccc(OCCCCN3CCN(c4cccc(Cl)c4Cl)CC3)cc2N1 | NO
Cc1c(OCC(F)(F)F)ccnc1CS(=O)c1nc2ccccc2[nH]1 (stereo not drawn) | NO
CCCCCCCCCCCCCCCC[n+]1ccn(Cc2ccccc2)c1C | YES
COc1ccc2[nH]c(C(=O)c3ccccc3)cc2c1 | YES

====

System: WPMY1-ACTB-RAB5A
Test: phenotypically active (imaging signature differs from DMSO and reproducible) at any of 0.3-9 uM (binary (1 = active, 0 = inactive)); higher = active
Conditions: treatment time: 24 h
Where a name gives a salt, the structure may show the parent alone.
phenotypically active values, listed per item
READOUT KIND: phenotypically active

COc1ccc([C@@H]2Sc3ccccc3N(CCN(C)C)C(=O)[C@@H]2OC(C)=O)cc1 [diltiazem] | 0
COc1cc2nc(N3CCN(C(=O)c4ccco4)CC3)nc(N)c2cc1OC [prazosin] | 0
O=C(NCc1cccc(O)c1)Nc1nc(-c2ccncc2)cs1 [RKI 1447 dihydrochloride] | 1
CC(=O)O[C@H]1C[C@@H]2CC[C@@H]3[C@H](CC[C@@]4(C)[C@H]3C[C@H]([N+]3(C)CCCCC3)[C@@H]4OC(C)=O)[C@@]2(C)C[C@@H]1N1CCCCC1 [vecuronium] | 0
Cn1c(=O)c2nc[nH]c2n(C)c1=O [theophylline] | 0
CC(=O)NC1=NN(C(C)=O)C(C)(c2ccccc2)S1 (centres undefined) | 1
O=c1cc(N2CCOCC2)oc2c(-c3ccccc3)cccc12 | 1
C/C=C1/[C@H]2C=C(C)C[C@]1(N)c1ccc(=O)[nH]c1C2 [Huperzine A] | 0
NCCc1ccc(O)c(O)c1 [dopamine] | 0
NCC(=O)Nc1ccc(-n2nc(C(F)(F)F)cc2-c2ccc3c(ccc4ccccc43)c2)cc1 | 1
Oc1cc(O)cc(/C=C/c2ccc(O)c(O)c2)c1 [Piceatannol] | 1
Nc1nccc2c1ncn2[C@@H]1C=C(CO)[C@@H](O)[C@H]1O [3-Deazaneplanocin A hydrochloride] | 1
Cc1ccc(S(=O)(=O)c2ccc([N+](=O)[O-])o2)cc1 | 1
Cc1cc2sc(NC(=O)Cc3ccccc3)nc2cc1Cl | 0
O=C1C=C(O)C(=O)c2ccccc21 [2-Hydroxy-[1,4]naphthoquinone] | 0
O=C1NC(=O)C(c2ccccc2[N+](=O)[O-])=C1Nc1ccc(O)c(Cl)c1 | 1
COc1c(C)cnc(Cn2cnc3c(Cl)nc(N)nc32)c1C | 1
CN(C)/N=N/c1[nH]cnc1C(N)=O [dacarbazine] | 0
COc1cc(O)c2c(c1C1CCCN1)OC(c1ccc(O)cc1)CC2 (centres undefined) [Vochysine (4 dia/énantio)] | 0

====

Tested on: WPMY1-TUBA1B-RELA
Assay: phenotypically active (imaging signature differs from DMSO and reproducible) at any of 0.3-9 uM (binary (1 = active, 0 = inactive)); higher = active
Conditions: treatment time: 24 h
Counter-ions that a name gives are not always drawn.
Outcomes: YES for active, NO for inactive

Nc1ncn([C@@H]2O[C@H](CO)[C@@H](O)[C@H]2O)c(=O)n1 [5-Azacytidine] | YES
CCOc1cc([C@@H](CS(C)(=O)=O)N2C(=O)c3cccc(NC(C)=O)c3C2=O)ccc1OC [apremilast] | NO
CC1=CC(=O)C2=C(C)CC[C@@H]3[C@H](OC(=O)[C@H]3C)[C@@H]12 [Leucomisine] | NO
CN(C)CCCSc1ccccc1NC(=O)/C=C/c1ccccc1 [Cinanserin hydrochloride] | NO
C#Cc1cccc(Nc2ncnc3cc(OCCOC)c(OCCOC)cc23)c1 [erlotinib] | NO
COc1ccc(-c2noc(CSc3nnc(C)n3-c3ccc(OC)cc3)n2)cc1 | NO
CCNC(=O)c1noc(-c2cc(C(C)C)c(O)cc2O)c1-c1ccc(CN2CCOCC2)cc1 | YES
CCOc1nc(NC(=O)Cc2cc(OC)ccc2OC)cc(N)c1C#N | NO
O=C(NC(CO)C(O)c1ccc([N+](=O)[O-])cc1)C(Cl)Cl (centres undefined) [Chloramphenicol] | NO
